compounds and their reported IC50
molecular target: PIK3CA (human), P42336 [Antiproliferation of PI3K Mutated BT20 Cells]; test: Cell-Based Assay
Sequence (P42336 whole entry, looked up, change not shown): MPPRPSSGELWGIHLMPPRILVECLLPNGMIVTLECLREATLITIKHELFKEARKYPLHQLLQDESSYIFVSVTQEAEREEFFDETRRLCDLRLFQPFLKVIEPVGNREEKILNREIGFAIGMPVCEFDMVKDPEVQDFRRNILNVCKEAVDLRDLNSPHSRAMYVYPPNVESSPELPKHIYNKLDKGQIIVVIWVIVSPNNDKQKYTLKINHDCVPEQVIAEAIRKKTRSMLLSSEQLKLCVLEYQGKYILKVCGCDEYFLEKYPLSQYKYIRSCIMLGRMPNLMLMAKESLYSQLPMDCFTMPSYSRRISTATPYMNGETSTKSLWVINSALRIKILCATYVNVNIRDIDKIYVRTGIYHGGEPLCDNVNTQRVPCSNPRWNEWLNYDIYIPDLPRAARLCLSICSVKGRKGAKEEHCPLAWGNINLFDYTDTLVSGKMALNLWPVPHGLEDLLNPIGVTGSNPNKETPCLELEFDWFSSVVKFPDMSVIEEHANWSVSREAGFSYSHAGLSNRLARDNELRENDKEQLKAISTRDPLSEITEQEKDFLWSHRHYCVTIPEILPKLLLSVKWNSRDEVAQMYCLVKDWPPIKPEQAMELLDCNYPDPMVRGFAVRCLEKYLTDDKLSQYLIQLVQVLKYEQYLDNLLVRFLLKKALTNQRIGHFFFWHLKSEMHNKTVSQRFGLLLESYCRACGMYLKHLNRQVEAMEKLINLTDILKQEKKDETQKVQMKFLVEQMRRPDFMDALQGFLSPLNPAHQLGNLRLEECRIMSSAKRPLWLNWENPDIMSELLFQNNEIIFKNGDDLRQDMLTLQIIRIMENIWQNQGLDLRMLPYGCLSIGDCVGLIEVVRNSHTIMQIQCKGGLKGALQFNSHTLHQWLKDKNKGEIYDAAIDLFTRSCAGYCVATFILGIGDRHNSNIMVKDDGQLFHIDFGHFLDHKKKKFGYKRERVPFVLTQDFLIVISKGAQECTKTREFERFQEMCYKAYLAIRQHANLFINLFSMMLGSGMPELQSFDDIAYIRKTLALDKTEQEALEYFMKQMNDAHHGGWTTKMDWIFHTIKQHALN
# value in nM; strip the unit string

Recorded result, "COc1ncccc1-c1cc2c(C)nc(N)nc2n(C2CCCC2)c1=O" , IC50: 5480

Recorded result, "COc1ccc(-c2cc3c(C)nc(N)nc3n(C(C)C)c2=O)cn1" , IC50: 64

Recorded result, "COc1ccc(-c2cc3c(C)nc(N)nc3n([C@@H]3CC[C@H](O)C3)c2=O)cn1" , IC50: 82.9

Recorded result, "Cc1nc(N)nc2c1cc(-c1cnc3[nH]ccc3c1)c(=O)n2[C@@H]1CC[C@H](O)C1" , IC50: 20.4

Further cases:
Recorded result, Cc1nc(N)nc2c1cc(Br)c(=O)n2CC1CCOC1 (stereo not given) , IC50: 1020

Recorded result, "Cc1nc(N)nc2c1cc(-c1cn[nH]c1)c(=O)n2CC(F)(F)F" , IC50: 236

Recorded result, CNc1nc(C)c2cc(-c3cnc4[nH]ccc4c3)c(=O)n(CC3CCOC3)c2n1 (stereo not given) , IC50: 13.5

Recorded result, "CNc1nc(C)c2cc(-c3cnc(N)c(OC[C@H](C)N)n3)c(=O)n(C3CCCC3)c2n1" , IC50: 2330

Recorded result, "Cc1nc(N)nc2c1cc(-c1cnn(CC(C)(C)O)c1)c(=O)n2C1CCCC1" , IC50: 101

Recorded result, "Cc1nc(N)nc2c1cc(-c1cnn(C(=O)OC(C)(C)C)c1)c(=O)n2N1CCCC1" , IC50: 5.08
